Reported IC50 values follow for various molecules
study.target: acid ceramidase (Homo sapiens)
Construct: Cell lysates overexpressing acid ceramidase were used as the enzyme source; expressed in transfected cells
Sequence (Q13510 22-395): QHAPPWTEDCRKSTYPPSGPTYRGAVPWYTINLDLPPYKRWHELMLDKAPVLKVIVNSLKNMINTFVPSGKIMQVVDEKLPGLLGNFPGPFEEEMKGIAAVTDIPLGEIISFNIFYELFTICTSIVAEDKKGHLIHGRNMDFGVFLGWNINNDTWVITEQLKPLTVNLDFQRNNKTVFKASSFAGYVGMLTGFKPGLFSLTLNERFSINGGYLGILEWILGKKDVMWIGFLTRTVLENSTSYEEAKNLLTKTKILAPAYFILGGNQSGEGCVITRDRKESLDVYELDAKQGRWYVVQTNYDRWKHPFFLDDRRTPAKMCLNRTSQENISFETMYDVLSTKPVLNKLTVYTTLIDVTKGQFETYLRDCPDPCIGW
assay.remarks: Acid ceramidase inhibition, biochemical fluorescent assay with cell lysates overexpressing acid ceramidase, substrate Rbm14-12
condition.summary: substrate Rbm14-12 6.3 μM, pH 4.5

Examples from the recorded data:
* CCC#CCNC(=O)n1cnc2c(N3CCN(C)CC3)cccc21 | 0.2 to 1 µM
* C[C@@H]1CN(c2cccc3c2ncn3C(=O)NCCCC(F)(F)F)C[C@H](C)O1 | 0.2 to 1 µM
* O=C1CN(c2cccc3c2ncn3C(=O)NCCCc2ccccc2)CCN1C1CC1 | < 0.2 µM
* CC(C)CCNC(=O)n1cnc2c(N3CCO[C@@H](C)C3)cccc21 | 0.2 to 1 µM

From here, focus on the item given below.
Problem: Fill in IC50 for record COc1nc2cc(N3CCOCC3)c(F)cc2n1C(=O)NCCc1ccccc1 [Example 334b]
Solution: < 0.2 µM

The measurements presented in this section are drawn from patent US20220380319A1.
